test system: P. aeruginosa; assay: Rhamnolipid production assay; type: cell-based, Pseudomonas aeruginosa; conditions: Pseudomonas aeruginosa, 24 h; Table 3; 10 (μM); read-out: Relative biological activity (%) Rhamnolipid production 10
attributeMeasured: activity at 10 µM (%)
Report as a plain number; the unit % is understood.

Exercise: I have this compound here, CCCC(O)CC(=O)/C=C/c1ccc(F)c(F)c1 (stereo not drawn) [Compound 11o] , and I need its recorded activity at 10 µM.
Solution: 63

Exercise: And for CCC[C@@H](O)C#Cc1ccc(F)c(F)c1 [Compound 33b, (R)-1-(3,4-Difluorophenyl)hex-1-yn-3-ol] ?
Solution: 60

Exercise: And for `CCCCC(=O)C#Cc1ccc(F)c(F)c1` ?
Solution: 59

Exercise: And for CCCC(O)CC(=O)/C=C/c1ccc(O)c(O)c1 (stereo not drawn) [Compound 11k] ?
Solution: 56

Exercise: And for CCC[C@H](O)C#Cc1ccc(F)c(F)c1 [Compound 33c, (S)-1-(3,4-Difluorophenyl)hex-1-yn-3-ol] ?
Solution: 59

Exercise: And for CCCC(O)CC(=O)/C=C/c1cccc(OC)c1 (stereo not drawn) [Compound 11c] ?
Solution: 91

Exercise: And for `CCCCCC(=O)C#Cc1ccc(F)c(F)c1` ?
Solution: 60

Exercise: And for CCCC(O)CC(=O)/C=C/c1ccc(O)c(OC)c1 (stereo not drawn) [Compound 11a] ?
Solution: 73

Exercise: And for CCCCCC(=O)/C=C/c1ccc(F)c(F)c1 [Compound 13a, (E)-1-(3,4-Difluorophenyl)oct-1-en-3-one] ?
Solution: 64
